Reference source: patent US8835429B2

PI3K-alpha (Homo sapiens, UniProt P42336) pIC50 data
Sequence (P42336 whole entry, species assumed): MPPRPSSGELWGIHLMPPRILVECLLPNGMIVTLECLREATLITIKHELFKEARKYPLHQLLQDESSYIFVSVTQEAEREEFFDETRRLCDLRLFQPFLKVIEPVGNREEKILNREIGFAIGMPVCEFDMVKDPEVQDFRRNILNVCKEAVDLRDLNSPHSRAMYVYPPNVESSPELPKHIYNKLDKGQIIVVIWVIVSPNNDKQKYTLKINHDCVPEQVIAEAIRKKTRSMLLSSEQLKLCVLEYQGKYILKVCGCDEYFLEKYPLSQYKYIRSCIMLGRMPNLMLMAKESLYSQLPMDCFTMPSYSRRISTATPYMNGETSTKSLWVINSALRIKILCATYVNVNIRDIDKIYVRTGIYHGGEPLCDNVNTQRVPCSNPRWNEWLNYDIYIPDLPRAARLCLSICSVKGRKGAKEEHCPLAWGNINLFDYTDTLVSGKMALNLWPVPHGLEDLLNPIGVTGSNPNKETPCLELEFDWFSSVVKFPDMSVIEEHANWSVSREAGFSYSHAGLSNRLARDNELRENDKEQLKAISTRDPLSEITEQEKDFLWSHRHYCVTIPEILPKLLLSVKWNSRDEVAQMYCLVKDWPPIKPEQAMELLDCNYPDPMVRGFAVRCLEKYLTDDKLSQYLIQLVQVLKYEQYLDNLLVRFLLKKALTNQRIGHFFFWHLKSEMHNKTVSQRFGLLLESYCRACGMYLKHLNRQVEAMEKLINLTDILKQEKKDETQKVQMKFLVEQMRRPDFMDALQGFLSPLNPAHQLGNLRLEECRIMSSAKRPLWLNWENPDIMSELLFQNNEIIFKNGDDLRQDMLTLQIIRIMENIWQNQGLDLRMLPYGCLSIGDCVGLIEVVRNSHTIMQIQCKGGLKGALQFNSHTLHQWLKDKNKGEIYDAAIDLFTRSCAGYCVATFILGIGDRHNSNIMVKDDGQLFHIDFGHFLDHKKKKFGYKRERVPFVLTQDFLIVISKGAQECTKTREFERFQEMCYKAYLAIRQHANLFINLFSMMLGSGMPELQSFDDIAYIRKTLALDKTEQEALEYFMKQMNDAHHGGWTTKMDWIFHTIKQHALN
Sequence (P27986 whole entry partner, species assumed): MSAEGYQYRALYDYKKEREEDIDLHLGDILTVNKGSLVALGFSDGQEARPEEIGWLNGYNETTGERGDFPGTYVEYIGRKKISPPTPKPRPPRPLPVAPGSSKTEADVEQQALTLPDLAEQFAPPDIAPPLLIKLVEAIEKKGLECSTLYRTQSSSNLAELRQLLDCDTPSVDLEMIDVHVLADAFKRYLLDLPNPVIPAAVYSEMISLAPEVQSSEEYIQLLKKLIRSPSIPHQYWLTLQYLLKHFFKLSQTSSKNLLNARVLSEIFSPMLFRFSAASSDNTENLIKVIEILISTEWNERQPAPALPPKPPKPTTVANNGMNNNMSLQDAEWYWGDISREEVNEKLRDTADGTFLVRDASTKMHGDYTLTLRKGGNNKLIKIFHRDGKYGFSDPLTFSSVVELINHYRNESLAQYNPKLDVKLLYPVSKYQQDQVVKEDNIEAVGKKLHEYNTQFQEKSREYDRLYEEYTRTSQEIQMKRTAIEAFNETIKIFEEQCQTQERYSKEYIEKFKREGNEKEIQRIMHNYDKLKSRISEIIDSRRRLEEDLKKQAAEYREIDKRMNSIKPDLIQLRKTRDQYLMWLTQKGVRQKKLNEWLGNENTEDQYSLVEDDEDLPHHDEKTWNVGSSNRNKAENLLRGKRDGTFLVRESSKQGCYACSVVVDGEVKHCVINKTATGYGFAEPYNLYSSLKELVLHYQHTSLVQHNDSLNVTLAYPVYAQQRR
Give bare numbers, as −log10 of the molar value.

Recorded results for 3 compounds are shown here.
1) CN(C)Cc1cc(N2C3CCC2COC3)nc(-c2ccc(NC(=O)Nc3cccnc3)cc2)n1
5.50
2) CNC(=O)Nc1ccc(-c2nc(OC(C)C)cc(N3CC4CCC(C3)O4)n2)cc1
6.15
3) CN1CCN(c2ccc(NC(=O)Nc3ccc(-c4nc(-c5ccccc5)cc(N5CC6CCC(C5)O6)n4)cc3)cc2)CC1
5.61

Now, please, on to the next compound.
Exam item: Given `O=C(Nc1ccncc1)Nc1ccc(-c2nc(N3C4CCC3COC4)cc(N3C[C@H]4C[C@@H]3CO4)n2)cc1` , state its recorded pIC50.
Marked response: 5.72

* * *

As a worked illustration, we turn to pIC50 data collected for PI3K-alpha (Homo sapiens, UniProt P42336).
Answers are plain numbers, as −log10 of the molar value.

For each of the compounds below, state pIC50.
1. CN1CCN(c2ccc(NC(=O)Nc3ccc(-c4nc(NC5CCOCC5)cc(N5C6CCC5COC6)n4)cc3)cc2)CC1
2. CN1CCN(Cc2ccc(NC(=O)Nc3ccc(-c4nc(NC5CCOCC5)cc(N5C6CCC5COC6)n4)cc3)cc2)CC1
3. CN1CCN(c2ccc(NC(=O)Nc3ccc(-c4nc(N5CC6CCC(C5)O6)cc(C(F)(F)F)n4)cc3)cc2)CC1
4. CCNC(=O)Nc1ccc(-c2nc(CS(C)(=O)=O)cc(N3CC4CCC(C3)O4)n2)cc1
5. C[C@@H]1COCCN1c1cc(N2C3CCC2COC3)nc(-c2ccc(NC(=O)Nc3ccncc3)cc2)n1
6. CC(C)Nc1cc(N2CC3CCC(C2)O3)nc(-c2ccc(NC(=O)Nc3ccncc3)cc2)n1

Marked response:
5.65
6.03
6.36
5.74
6.50
6.85

Provide pIC50 values for the following items, in order.
1. CC(C)N1CCN(C(=O)c2ccc(NC(=O)Nc3ccc(-c4nc(C5CCOCC5)cc(N5C6CCC5COC6)n4)cc3)cc2)CC1
2. CCN(CC)c1cc(N2C3CCC2COC3)nc(-c2ccc(NC(=O)Nc3ccncc3)cc2)n1
3. CC(C)N1CCN(C(=O)c2ccc(NC(=O)Nc3ccc(-c4nc(N5C[C@@H](C)O[C@@H](C)C5)cc(N5C6CCC5COC6)n4)cc3)cc2)CC1
4. CC(C)N1CCN(C(=O)c2ccc(NC(=O)Nc3ccc(-c4nc(N5C6CCC5COC6)cc(N5CCOC[C@H]5C)n4)cc3)cc2)CC1
5. CN1CCN(c2ccc(NC(=O)Nc3ccc(-c4nc(N5C6CCC5COC6)c(Cl)c(N5C6CCC5COC6)n4)cc3)cc2)CC1
6. O=C(Nc1ccc(-c2nc(N3C4CCC3COC4)c(Cl)c(N3C4CCC3COC4)n2)cc1)Nc1cccnc1

Marked response:
1. 6.45
2. 5.62
3. 6.53
4. 6.91
5. 6.00
6. 6.04

For every item in the list below, what is its measured pIC50?
1. CN1CCN(c2ccc(NC(=O)Nc3ccc(-c4nc(N5C6CCC5COC6)cc(N5C[C@H]6C[C@@H]5CO6)n4)cc3)cc2)CC1
2. O=C(Nc1ccc(-c2nc(C3CCOCC3)cc(N3C4CCC3COC4)n2)cc1)Nc1cccnc1
3. CN1CCN(c2ccc(NC(=O)Nc3ccc(-c4nc(N5C6CCC5COC6)cc(N5C6CCC5COC6)n4)cc3)cc2)CC1
4. CNC(=O)Nc1ccc(-c2nc(CN(C)C)cc(N3C4CCC3COC4)n2)cc1

Marked response:
1: 5.68; 2: 5.57; 3: 5.94; 4: 5.10
